Entry source: PubChem BioAssay

target: Carbonic anhydrase 2 (Homo sapiens) (UniProt P00918); assay: CAII small-molecule binders, profiling panel, biochemical, small-molecule microarray, Alexa647-labelled CAII (AID 1122); conditions: CAII-A647 binding fluorescence, higher = more signal
Label scheme, based on composite z-score: Low = under 0.5, Mid = from 0.5 up to 0.7, High = 0.7 and over

Would you mind sorting COCCOC(=O)N1C(=O)[C@@]2(c3cc(C#CCC(C(=O)OC)C(=O)OC)ccc31)[C@H](C(=O)N1CCc3cc(OC)c(OC)cc3C1)[C@H]1C(=O)O[C@H](c3ccccc3)[C@H](c3ccccc3)N1[C@@H]2c1ccc(O)cc1 into the appropriate category? Low
